# credit: paper PMC9465256

// reported activity at 100 µM per item
- EXPERIMENTAL_SYSTEM: human ABHD6 (Homo sapiens)
- Construct: expressed in transfected cells; host or cells: HEK293T (transient transfection; membrane fraction)
- Sequence (Q9BV23 whole entry): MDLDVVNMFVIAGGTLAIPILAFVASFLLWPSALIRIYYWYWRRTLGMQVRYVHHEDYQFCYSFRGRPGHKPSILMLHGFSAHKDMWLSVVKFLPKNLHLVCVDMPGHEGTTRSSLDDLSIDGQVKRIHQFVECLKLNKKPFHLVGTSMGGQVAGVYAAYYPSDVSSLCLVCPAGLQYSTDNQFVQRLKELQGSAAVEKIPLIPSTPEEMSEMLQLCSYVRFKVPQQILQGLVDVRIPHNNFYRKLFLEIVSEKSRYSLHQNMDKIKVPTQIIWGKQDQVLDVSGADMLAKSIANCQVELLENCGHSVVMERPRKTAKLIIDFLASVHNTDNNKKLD
- METHOD_NOTES: ABHD6 activity assay (AA-HNA fluorogenic substrate)
- Type: biochemical
- CONDITION: 100 µM, AA-HNA substrate assay, Supplementary Table 2; read-out: ABHD6 Inhibition (%)
Report the value in % with no unit label.

O=C(O)c1cc(=O)[nH]c(=O)[nH]1 [compound 61, Orotic acid]
113
O=c1c(O)c(-c2ccc(O)c(O)c2)oc2cc(O)cc(O)c12 [compound 70, Quercetin]
48.6
COc1ccc(-c2oc3c(CC=C(C)C)c(O[C@@H]4O[C@H](CO)[C@@H](O)[C@H](O)[C@H]4O)cc(O)c3c(=O)c2O[C@@H]2O[C@@H](C)[C@H](O)[C@@H](O)[C@H]2O)cc1 [compound 41, Icariin]
84.6
O=C(O[C@@H]1Cc2c(O)cc(O)cc2O[C@@H]1c1cc(O)c(O)c(O)c1)c1cc(O)c(O)c(O)c1 [compound 2, (-)-Epigallocatechin Gallate]
95
Cc1cc2c(C(C)C)c(O)c(O)c(C=O)c2c(O)c1-c1c(C)cc2c(C(C)C)c(O)c(O)c(C=O)c2c1O [compound 34, Gossypol Acetate]
26.3
C[C@H]1[C@@H](O)O[C@@H]2O[C@@]3(C)CC[C@H]4[C@H](C)CC[C@@H]1[C@@]24OO3 [compound 26, Dihydroartemisinin]
89.2
O=c1c(O)c(-c2cc(O)c(O)c(O)c2)oc2cc(O)cc(O)c12 [compound 52, Myricetin]
100
COc1c(O)cc2c(c1O)[C@@H]1O[C@H](CO)[C@@H](O)[C@H](O)[C@H]1OC2=O [compound 16, Bergenin]
110
C=C[C@H]1CN2CC[C@H]1C[C@H]2[C@H](O)c1ccnc2ccccc12 [compound 21, Cinchonidine]
109
O=c1c(O)c(-c2ccc(O)cc2)oc2cc(O)cc(O)c12 [compound 43, Kaempferol]
84.3

Quick one: give measured activity at 100 µM for COc1ccc2ccc(=O)oc2c1CC=C(C)C [compound 62, Osthole]
112

Quick one: give measured activity at 100 µM for O=C(CCc1ccc(O)cc1)c1c(O)cc(O)cc1O[C@@H]1O[C@H](CO)[C@@H](O)[C@H](O)[C@H]1O [compound 67, Phlorizin]
116

Quick one: give measured activity at 100 µM for O=c1cc(-c2ccc(O)cc2)oc2cc(O)cc(O)c12 [compound 9, Apigenin]
88.9

Quick one: give measured activity at 100 µM for COc1ccc2cc3[n+](cc2c1OC)CCc1cc2c(cc1-3)OCO2 [compound 17, Berberine chloride]
112

Quick one: give measured activity at 100 µM for O=C(/C=C/c1ccc(O)c(O)c1)O[C@@H]1C[C@](O)(C(=O)O)C[C@@H](O)[C@H]1O [compound 20, Chlorogenic acid]
102

Quick one: give measured activity at 100 µM for O=C1CCC[C@@H]2[C@H]3CCC[N+]4([O-])CCC[C@@H](CN12)[C@@H]34 (stereo partly shown) [compound 63, Oxymatrine]
102

Quick one: give measured activity at 100 µM for O=C(O)[C@H]1O[C@@H](Oc2cc3oc(-c4ccccc4)cc(=O)c3c(O)c2O)[C@H](O)[C@@H](O)[C@@H]1O [compound 15, Baicalin]
121

Quick one: give measured activity at 100 µM for CC1(C)[C@@H](O[C@H]2O[C@H](C(=O)O)[C@@H](O)[C@H](O)[C@H]2O[C@@H]2O[C@H](C(=O)O)[C@@H](O)[C@H](O)[C@H]2O)CC[C@]2(C)[C@H]3C(=O)C=C4[C@@H]5C[C@@](C)(C(=O)O)CC[C@]5(C)CC[C@@]4(C)[C@]3(C)CC[C@@H]12 [compound 33, Glycyrrhizin]
92.9

Quick one: give measured activity at 100 µM for CC1(C)CC[C@]2(C(=O)O)CC[C@]3(C)C(=CC[C@@H]4[C@@]5(C)CC[C@H](O)C(C)(C)[C@@H]5CC[C@]43C)[C@@H]2C1 [compound 59, Oleanolic Acid]
98.5

Quick one: give measured activity at 100 µM for COc1ccc(C(C)=O)c(O)c1 [compound 64, Paeonol]
96.2
